# experimental_protocol: folding enthalpy; higher = less favourable; fluorescence melt of hairpins on a sequencing array, two-state fit
# settings: sodium 0.088 M
Can you tell me folding enthalpy for the items I'm about to list?
Numbers only, in kcal/mol.

GTCTCCGAAAGGATTGAC ((((((....)))..))) | -20
TGGGAGAAATCCCA (((((....))))) | -19.5

// next item, folding enthalpy requested
Request: Quote folding enthalpy reported for GTACCCCGAAAGGGATAC (((.(((....))).))) please.
Response: -19.6

----------
# experimental_protocol: melting temperature; fluorescence melt of hairpins on a sequencing array, two-state fit, raised by 9.35 °C to match UV melts
# settings: sodium 0.088 M
Can you tell me Tm for the items I'm about to list?
Answers are plain numbers, in °C.

# count of solved cases: 5
GCCCAGGGAAACCTGGAC (.(((((....))))).) | 49.4
GGCGTGGGAAACCACACC ((.((((....)))).)) | 50.5
GCTATGGGAAACCATGGC ((.((((....)))).)) | 50.9
GATCCACAATTGGATC ((((((....)))))) | 47.5
CGATTGCGGAAACGCTCG (((..(((....)))))) | 33.5

Value sought for every listed sequence: Tm.
1. GGGTGCACGAAAGTGCCC (((..(((....))))))
2. GATCCGTAGTCGGATC ((((((....))))))
3. GGGATCGAAAGATCACCC ((((((....)))..)))

Response:
1: 52.6; 2: 57; 3: 51.1
